Molecular target: T1, CD137-hisFc fusion protein (Sino Biological Cat 10041-H03H) (human, UniProt Q07011 24-186)
T1 construct: Bought; also called recombinant human CD137 (fused with human Fc and His tag); not shown: His tag and human Fc
Test: BLI Octet, Fab
Entries and their koff
# unit: s⁻¹ | format: bare number

Some binders with known koff results, for comparison:
Q: So what does the record say about koff for Fab 5316 (Fab, V domains shown, Fab from E. coli; also called VH17/VL17) VH: EVQLVESGGGLVQPGGSLRLSCAASGYSISSGYHWAWIRQAPGKGLEWVSSISGDGSSTYYADSVKGRFTISRDNSKNTLYLQLNSLRAEDTAVYYCAREGSDAVTGDWFAYWGQGTLVTVSS VL: DIQLTQSPSSLSASVGDRVTITCRASQGVGTYLAWYQQKPGKAPKLLIYDASSLESGVPSRFSGSGSGTDFTLTISSLQPEDFATYYCQQGYSLWTFGQGTKVEIKR ?
Result: 0.00161

Q: So what does the record say about koff for Fab 4076 (Fab, V domains shown, Fab from E. coli; also called VH4/VL4) VH: EVQLVESGGGLVQPGGSLRLSCAASGYSITSGYHWGWIRQAPGKGLEWVSAISGAGGSTYYADSVKGRFTISRDNSKNTLYLQLNSLRAEDTAVYYCARDGYGGSYFDYWGQGTLVTVSS VL: DIQLTQSPSSLSASVGDRVTITCQASQDISTFLAWYQQKPGKAPKLLIYDASSLESGVPSRFSGSGSGTDFTLTISSLQPEDFATYYCQQAYSIWTFGQGTKVEIKR ?
Result: 0.000475

Q: So what does the record say about koff for Fab 7092 (Fab, V domains shown, Fab from E. coli; also called VH48/VL48) VH: EVQLVESGGGLVQPGGSLRLSCAASGFSLSTSGMGVGWIRQAPGKGLEWVSYISGYGGTTYYADSVKGRFTISRDNSKNTLYLQLNSLRAEDTAVYYCAREGSDVVAGDWFAYWGQGTLVTVSS VL: DIQLTQSPSSLSASVGDRVTITCRASQGISSYLAWYQQKPGKAPKLLIYDASNLETGVPSRFSGSGSGTDFTLTISSLQPEDFATYYCQQYYSTPLTFGQGTKVEIKR ?
Result: 0.0197

Q: So what does the record say about koff for Fab 7163 (Fab, V domains shown, Fab from E. coli; also called VH59/VL59) VH: EVQLVESGGGLVQPGGSLRLSCAASGFSLSTSGVGVTWIRQAPGKSLEWIGDIYHSGSTYYSPSLKSRVTISRDNSKNTLYLQLNSLRAEDTAVYYCAREGSDAVAGDWFDYWGQGTLVTVSS VL: DIQLTQSPSSLSASVGDRVTITCRASQSISSYLNWYQQKPGKAPKLLIYAASTLQSGVPSRFSGSGSGTDFTLTISSLQPEDFATYYCQQYYSTPLTFGQGTKVEIKR ?
Result: 0.00378

Q: So what does the record say about koff for Fab 7159 (Fab, V domains shown, Fab from E. coli; also called VH58/VL58) VH: EVQLVESGGGLVQPGGSLRLSCAASGFSLSTSGVGVGWIRQAPGKGLEWIGDIYHSGSTYYNPSLKSRVTISRDNSKNTLYLQLNSLRAEDTAVYYCAREGSTAVLGDWFAYWGQGTLVTVSS VL: DIQLTQSPSSLSASVGDRVTITCRASQSISSYLNWYQQKPGKAPKLLIYAASTLQSGVPSRFSGSGSGTDFTLTISSLQPEDFATYYCQQYYSTPLTFGQGTKVEIKR ?
Result: 0.00403

Others:
Q: So what does the record say about koff for Fab 5318 (Fab, V domains shown, Fab from E. coli; also called VH18/VL18) VH: EVQLVESGGGLVQPGGSLRLSCAASGFSLSTSGVAVGWIRQAPGKGLEWLALIDWDDDKYYSTSLKSRLTISRDNSKNTLYLQLNSLRAEDTAVYYCAREGSTAVAGDWFAYWGQGTLVTVSS VL: DIQLTQSPSSLSASVGDRVTITCQASQDIRTFLAWYQQKPGKAPKLLIYDASNRATGIPSRFSGSGSGTDFTLTISSLQPEDFATYYCQQGYSTWTFGQGTKVEIKR ?
Result: 0.00269

Q: So what does the record say about koff for Fab 7097 (Fab, V domains shown, Fab from E. coli; also called VH49/VL49) VH: EVQLVESGGGLVQPGGSLRLSCAASGYSISSGHHWDWIRQAPGKGLEWVSYISGAGDTTYYADSVKGRFTISRDNSKNTLYLQLNSLRAEDTAVYYCAREGSDAVLGDWFAYWGQGTLVTVSS VL: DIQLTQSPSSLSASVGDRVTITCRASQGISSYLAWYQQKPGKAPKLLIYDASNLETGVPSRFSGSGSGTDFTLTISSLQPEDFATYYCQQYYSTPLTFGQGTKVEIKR ?
Result: 0.0132

Q: So what does the record say about koff for Fab 5303 (Fab, V domains shown, Fab from E. coli; also called VH14/VL14) VH: EVQLVESGGGLVQPGGSLRLSCAASGFSLSTSGVAVGWIRQAPGKGLEWLALIDWADDKYYSPSLKSRLTISRDNSKNTLYLQLNSLRAEDTAVYYCAREGSDAVLGDWFAYWGQGTLVTVSS VL: DIQLTQSPSSLSASVGDRVTITCRASQDISTFLAWYQQKPGKAPKLLIYDASSLESGVPSRFSGSGSGTDFTLTISSLQPEDFATYYCQQAYSIWTFGQGTKVEIKR ?
Result: 0.00509
